Source: the OligoGym collection

# TARGET OF ASSAY: WIZ
# ASSAY NOTES: pooled miR-30 sensor sort-seq; sequence = guide strand; also: reference of the scale not given here
# CONDITION LABEL: shRNA
ENDPOINT NAME: sensor-assay potency score (higher = more potent)

{"ORDERED RESIDUES": "TTCTGCTGTAGGTCATTGGTGT", "MEASURED VALUE": -0.0622}
{"ORDERED RESIDUES": "TTTGGAGAAGTTCATCTCCAGG", "MEASURED VALUE": -1.49}
{"ORDERED RESIDUES": "TTCTTCTTGAGGATCTCTCGCA", "MEASURED VALUE": -0.31}
{"ORDERED RESIDUES": "AATTCCACCTCACAGAACCTGC", "MEASURED VALUE": -1.06}
{"ORDERED RESIDUES": "TTGACAAGTGATGTCTGGGGGG", "MEASURED VALUE": -0.32}
{"ORDERED RESIDUES": "TTGAGGATCTCTCGCAGTGTGT", "MEASURED VALUE": -1.29}
{"ORDERED RESIDUES": "TATTTGTTCAGGCTTCAGCTTC", "MEASURED VALUE": -1.07}
{"ORDERED RESIDUES": "TTGGCCTTGACCTCTGCTGGGA", "MEASURED VALUE": -0.479}

* * *

# TARGET OF ASSAY: SSX5
# ASSAY NOTES: pooled miR-30 sensor sort-seq; sequence = guide strand
# CONDITION LABEL: shRNA
Given measured sensor-assay potency score (higher = more potent), output satisfied if it is greater than or equal to -0.3 and not satisfied if not.

{"ORDERED RESIDUES": "TGCTTTTGCATCTTCTCTGGTA", "ANSWER LABEL": "not satisfied"}
{"ORDERED RESIDUES": "AACAGAAACACTAACATCGAAC", "ANSWER LABEL": "not satisfied"}
{"ORDERED RESIDUES": "TTCTCTCACGCACTCTGTGGGT", "ANSWER LABEL": "not satisfied"}
{"ORDERED RESIDUES": "TTCATAAATCACCAGTTGCTTT", "ANSWER LABEL": "not satisfied"}
{"ORDERED RESIDUES": "TGGTATTTGAGAACCAACCCTA", "ANSWER LABEL": "not satisfied"}
{"ORDERED RESIDUES": "TTGCTTTCTCTCACGCACTCTG", "ANSWER LABEL": "satisfied"}

* * *

# TARGET OF ASSAY: TBC1D7
# ASSAY NOTES: pooled miR-30 sensor sort-seq; sequence = guide strand
# CONDITION LABEL: shRNA
ENDPOINT NAME: sensor-assay potency score (higher = more potent)

{"ORDERED RESIDUES": "TATCTTCTCTGCACTGTTCAGT", "MEASURED VALUE": 0.23}
{"ORDERED RESIDUES": "TCTCATAATATACTGAACGAAA", "MEASURED VALUE": -1.27}
{"ORDERED RESIDUES": "TTCGACAGCTACAAAAACTAGG", "MEASURED VALUE": -0.269}
{"ORDERED RESIDUES": "AAGAACACAATGCTCACTGTGG", "MEASURED VALUE": -0.247}
{"ORDERED RESIDUES": "TAACTTCCCAGACTCCAGCTGA", "MEASURED VALUE": -0.346}
{"ORDERED RESIDUES": "TTACGATACATCATCACCTTGG", "MEASURED VALUE": 0.3}
{"ORDERED RESIDUES": "TTCTTTTCTTCAACTCCACGAA", "MEASURED VALUE": -0.5}

* * *

# TARGET OF ASSAY: PRODH2
# ASSAY NOTES: pooled miR-30 sensor sort-seq; sequence = guide strand
# CONDITION LABEL: shRNA
ENDPOINT NAME: sensor-assay potency score (higher = more potent)

{"ORDERED RESIDUES": "AAAATTGGAAACGCTGTAGTGT", "TARGET OF ASSAY": "PRODH2", "MEASURED VALUE": -0.189}
{"ORDERED RESIDUES": "TTGCTTCCTCTTAAAATTGGAA", "TARGET OF ASSAY": "PRODH2", "MEASURED VALUE": -1.06}
{"ORDERED RESIDUES": "AAACGCTGTAGTGTTATTGAAT", "TARGET OF ASSAY": "PRODH2", "MEASURED VALUE": -0.964}
{"ORDERED RESIDUES": "TTGAAAATACGGTTCTCACGTT", "TARGET OF ASSAY": "PRODH2", "MEASURED VALUE": -0.536}
{"ORDERED RESIDUES": "TAGTGTTATTGAATACATTTGA", "TARGET OF ASSAY": "PRODH2", "MEASURED VALUE": -0.549}
{"ORDERED RESIDUES": "TAACAGGTCCGGAGCATCCTGG", "TARGET OF ASSAY": "PRODH2", "MEASURED VALUE": -1.03}
{"ORDERED RESIDUES": "TTAAAATTGGAAACGCTGTAGT", "TARGET OF ASSAY": "PRODH2", "MEASURED VALUE": 0.00998}

* * *

# TARGET OF ASSAY: ZFHX4
# ASSAY NOTES: pooled miR-30 sensor sort-seq; sequence = guide strand
# CONDITION LABEL: shRNA
# binarize sensor-assay potency score (higher = more potent): threshold -0.3 inclusive, high side 1.0, low side 0.0

{"ORDERED RESIDUES": "TTCTTCTGTACCTTCTGCCTGT", "ANSWER LABEL": 1.0}
{"ORDERED RESIDUES": "TTTGTTGCTGAGGACGTCCTGA", "ANSWER LABEL": 0.0}
{"ORDERED RESIDUES": "TAACATTTCACATTCTTGCATG", "ANSWER LABEL": 0.0}
{"ORDERED RESIDUES": "TTGCTTGTTCGAATGTACCGTT", "ANSWER LABEL": 1.0}
{"ORDERED RESIDUES": "TTGCTCTCTGACATCTTGCTAG", "ANSWER LABEL": 0.0}
{"ORDERED RESIDUES": "TTGAAGTTCAGCTTCACTCAGT", "ANSWER LABEL": 1.0}
{"ORDERED RESIDUES": "TTTGTTACCAATACTATCGGTG", "ANSWER LABEL": 1.0}

* * *

# TARGET OF ASSAY: PDGFRB
# ASSAY NOTES: pooled miR-30 sensor sort-seq; sequence = guide strand
# CONDITION LABEL: shRNA
Parameter sensor-assay potency score (higher = more potent): see the listing below.
ENDPOINT NAME: sensor-assay potency score (higher = more potent)

{"ORDERED RESIDUES": "TCTTTTTGTAACCTTCGCCCAA", "TARGET OF ASSAY": "PDGFRB", "MEASURED VALUE": -0.683}
{"ORDERED RESIDUES": "TTGCTGTAGAGCTCCGCGCTGG", "TARGET OF ASSAY": "PDGFRB", "MEASURED VALUE": -0.717}
{"ORDERED RESIDUES": "TCAGCTCTGACACATACCGGGT", "TARGET OF ASSAY": "PDGFRB", "MEASURED VALUE": -1.42}
{"ORDERED RESIDUES": "TTGATCAAAGTTGCTCGGCAGG", "TARGET OF ASSAY": "PDGFRB", "MEASURED VALUE": -0.679}
{"ORDERED RESIDUES": "TAGCACTGGAGACTCGTTGATC", "TARGET OF ASSAY": "PDGFRB", "MEASURED VALUE": -0.385}
{"ORDERED RESIDUES": "AAAGTCACAGATCTTGACCAGC", "TARGET OF ASSAY": "PDGFRB", "MEASURED VALUE": -0.788}

* * *

# TARGET OF ASSAY: ZIC5
# ASSAY NOTES: pooled miR-30 sensor sort-seq; sequence = guide strand
# CONDITION LABEL: shRNA
Binning of sensor-assay potency score (higher = more potent) into classes: class 1: < -0.6; class 2: ≥ -0.6 and < -0.2; class 3: ≥ -0.2

{"ORDERED RESIDUES": "TCGAATCTTGCAGTAGTAGGGC", "ANSWER LABEL": "class 3"}
{"ORDERED RESIDUES": "TTGAGGTTGGTCACCTGAGGGG", "ANSWER LABEL": "class 2"}
{"ORDERED RESIDUES": "TGTATGAGTACGCTTGTGGATC", "ANSWER LABEL": "class 1"}
{"ORDERED RESIDUES": "TTTGTCACAGCCTCGAATCTTG", "ANSWER LABEL": "class 3"}
{"ORDERED RESIDUES": "ATGAGTACGCTTGTGGATCTTG", "ANSWER LABEL": "class 1"}
{"ORDERED RESIDUES": "TTGCAGATGAGCTCCTGCTTGA", "ANSWER LABEL": "class 2"}
{"ORDERED RESIDUES": "TAGTAGGGCTTGTCACTGGTGT", "ANSWER LABEL": "class 3"}
{"ORDERED RESIDUES": "TCATCTTCAGTCTCAGAGGTGG", "ANSWER LABEL": "class 2"}
{"ORDERED RESIDUES": "TGTCATATTCTGAAGCGGCTGG", "ANSWER LABEL": "class 3"}
{"ORDERED RESIDUES": "TTGGTGGTGGTGTAGCCCGAGA", "ANSWER LABEL": "class 1"}
